target: SARS-CoV-2 nsp3-mac1 (Severe acute respiratory syndrome coronavirus 2); experiment: biochemical; type: biochemical; settings: SARS-CoV-2 nsp3 macrodomain TR-FRET single point; concentration 49.75 uM
REPORTED_ENDPOINT: perc_inhibition_mean (%)
Lab book: enter the figure in %, no units written.

> print(dat)
                                   compound     reported.endpoint  u  readout.number
1  O=C(c1ccnnc1O)N1CCC(c2ccn3ncc(C(=O)N4CCCCC4)c3c2)CC1 [ASAP-0000364]  perc_inhibition_mean  %          -7.591

Entry CC(C)[C@@H](CCN(C)C(=O)c1nn2cccnc2c1Cl)Nc1ncnc2[nH]ccc12 [ASAP-0000466] has what perc_inhibition_mean? 0.844

Entry CC(C)c1nc([C@@H](C)Nc2ncnc3nc[nH]c23)cs1 [ASAP-0000426] has what perc_inhibition_mean? 2.645

Entry Cn1nc(C(=O)O)cc1C(=O)N1CCC(c2ccn3ncc(C(=O)N4CCCCC4)c3c2)CC1 [ASAP-0000457] has what perc_inhibition_mean? 34.252
